Target: Recombinant human IL-1beta (rhIL-1b) (human, UniProt P01584 117-269)
Test: cell-based or functional assay
measured-parameter: % IL-6 production, supernatant 1:5 dilut.

Below: 4 binders and their reported % IL-6 production, supernatant 1:5 dilut..
• 9.11.1 (antibody, human IgG4, V domains shown, lambda; also called 9.11.3) VH: QVQLVESGGGVVQPGRSLRLSCAASGFTFSVYGMHWVRQAPGKGLEWVAVIWYDGNNKYYVDSVKGRFTISRDNSKNTLYLQLNSLRAEDTAVYYCARERSSSWYFDYWGQGTLVTVSS VL: QSALTQPASVSGSSGQSITISCTGTSSDVGSYNLVSWYQQHPGKAPKLMIYEVSKRPSGVSNRFSGSKSGNTASLTISGLQAEDEADYYCCSYAGNSNWVFGGGTKLTVL = 4%
• 6.26.1 (antibody, human IgG4, V domains shown, lambda; also called 6.26.4) VH: QLQLQESGPGLVKPSETLSLTCTVSGGSISRSSYYWGWIRQPPGKGLEWMGNIYYSGSTHYNPSLKSRVTISVDTSKNQFSLKLSSVTAADTAVFYCAKGREYISSSGYGMDVWGQGTTVTVS VL: SYELTQPPSVSVSPGQTASITCSGDKLGNKYVCWYQQKPGQSPVLVIFQDSRRPSGIPERFSGSNSGNTATLTISGTQAMDEADYYCQAWDTSTVIFGGGTKLTVL = 9%
• 6.33.1 (antibody, human IgG4, V domains shown, lambda; also called mAb 6.33.1) VH: QVQLVESGGGVVQPGRSLRLSCAASGFTFSVYGMHWVRQAPGKGLEWVAVIWYDGSNKYYADSVKGRFTISRDNSKNTLYLQMNSLRAEDTAVYYCAREKSSGWFFDYWGQGTLVTVSS VL: QSALTQPASVSGSPGQSITISCTGTSSDVGSYNLVSWYQQHPGKAPKLMIYEVSKRPSGISNRFSGSKSGNTASLTISGLQAEDEADYYCCSYAGNSIWVFGGGTKLTVL = 13%
• 8.18.1 (antibody, human IgG4, V domains shown, lambda; also called mAb 8.18.1) VH: QVQLQESGPGLVKPSETLSLTCTVSGGSVSSGGYYWSWIRQPPGKGLEWIGYFYYSGSPNYNPSLKRRIAISVDTSKNQFSLRLSSVTAADTAVYYCARDPMHYYGMDVWGQGTTVTVSS VL: SSELTQPPSVSVFPGQTANITCSGDKLGDKFACWYQQKPGQSPVLVIYRDNKRPSGIPERFSGSNSGNTATLTISGTQAMDEADYYCQAWDSSTYVVFGGGTKLTVL = 2%

The binder 9.26.1 (antibody, human IgG4, V domains shown, lambda; also called 9.26.3) VH: QVQLVESGGGVVQPGRSLRLSCAASGFTFNNYGMHWVRQAPGKGLECVAVIWYDGGNKYYADSVKGRFAISRDNSKNTLYLQMNSLRAEDTAVYYCTAVTKLNYYYGMDVWGQGTTVTVS VL: QSALTQPASVSGSPGQSITISCTGTSSDVGGYNYVSWYQQHPGKAPKLMIYEVSNRPSGVSNRFSGSKSGNTASLTISGLQAEDEADYYCSSYTSSSILVFGGGTKLTVL showed % IL-6 production, supernatant 1:5 dilut. equal to 12%

The binder 9.19.1 (antibody, human IgG4, V domains shown, lambda; also called mAb 9.19.1) VH: QVQLVESGGGVVQPGRSLRLSCAASGFTFNNYGMHWVRQAPGKGLECVAVIWYDGGNKYYADSVKGRFAISRDNSKNTLYLQMNSLRAEDTAVYYCTAVTKLNYYYGMDVWGQRTTVTVS VL: QSALTQPASVSGSPGQSITISCTGTSSDVGGYNYVSWYQQHPGKAPKFMIYEVSNRPSGVSNRFSGSKSGNTASLTISGLQAEDEADYYCSSYTSSSILVFGGGTKLTVL showed % IL-6 production, supernatant 1:5 dilut. equal to 5%

The binder 8.6.1 (antibody, human IgG4, V domains shown, lambda; also called 8.6.3) VH: QVQLQESGPGLVKPSETLSLTCTVSGGSVSSGGYYWSWVRQPPGKGLEWIGCIYFSESTNYNPSLKSRVTISVDTSKNQFSLKLSSVTAADTAVYYCARDPMHYYGMDVWGQGTTVTVSS VL: SFELTQPPSVSVSPGQTASITCSGDKLGDKFACWYQQKPGQSPVLVIYQDTKRPSGIPERISGSNSGNTATLTISGTQAMDEADYYCQAWDSSTYVVFGGGTKLTVL showed % IL-6 production, supernatant 1:5 dilut. equal to 6%
